# Test description: Cellular Toxicity (caspase-3) Hek293 (AID 664);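 also: cells exposed to compound for 16 h at 37 °C before readout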
# Run parameters: HEK293 caspase-3 activation, DMSO = 0%, 100 µM tamoxifen = 100%; at 92.2 µM (top of the series)
Inconclusive results are not listed. Active and inactive are the calls of the source. Calls follow the shape of the dose curve; as a rule, active = well fitted activation curve with a large enough effect; inconclusive = small, poorly fitted or top-dose-only effect; inactive = flat fitted curve, though single readings scatter.
As shown below, each of these molecules has a reported caspase-3 activation value.

- Molecule: "Clc1cccc(Cl)c1"
  caspase-3 activation: "1.04% (inactive)"
- Molecule: "c1ccc2c(c1)CCNC2"
  caspase-3 activation: "-0.664% (inactive)"
- Molecule: "C(CCOCC1CO1)COCC1CO1 (centres undefined)"
  caspase-3 activation: "0.467% (inactive)"
- Molecule: "CCCCCCCCCCCCCl"
  caspase-3 activation: "2.31% (inactive)"
- Molecule: "Cc1ccc2c(c1N)C(=O)c1ccccc1C2=O"
  caspase-3 activation: "-8.32% (inactive)"
- Molecule: "Cl/C=C\\Cl"
  caspase-3 activation: "0.708% (inactive)"
- Molecule: "CCN(CC)N=O"
  caspase-3 activation: "1.39% (inactive)"
- Molecule: "N#C/C(N)=C(/N)C#N"
  caspase-3 activation: "-2.4% (inactive)"
- Molecule: "CC(=O)CCC(C)=O"
  caspase-3 activation: "0.261% (inactive)"
- Molecule: "N#C/C=C/C#N"
  caspase-3 activation: "-2.32% (inactive)"
- Molecule: "CCCCOCC1CO1 (centres undefined)"
  caspase-3 activation: "3.87% (inactive)"
- Molecule: "CCCN(CCC)c1c([N+](=O)[O-])cc(C(F)(F)F)cc1[N+](=O)[O-]"
  caspase-3 activation: "3.06% (inactive)"
- Molecule: "Cc1ccc(N)c(C)c1"
  caspase-3 activation: "1.54% (inactive)"
- Molecule: "BrCCc1ccccc1"
  caspase-3 activation: "0.126% (inactive)"
- Molecule: "CCCCCOC(=O)c1ccccc1C(=O)OCCCCC"
  caspase-3 activation: "3.92% (inactive)"
- Molecule: "Oc1cc(Cl)c(Cl)c(Cl)c1Cl"
  caspase-3 activation: "8.07% (inactive)"
- Molecule: "C=CC(=O)OC"
  caspase-3 activation: "2% (inactive)"
- Molecule: "Nc1c(Br)cc([N+](=O)[O-])cc1[N+](=O)[O-]"
  caspase-3 activation: "4.97% (inactive)"
- Molecule: "O=C(Cc1ccccc1)OCc1ccccc1"
  caspase-3 activation: "2.6% (inactive)"
- Molecule: "Cc1cc(N=Nc2ccccc2C)ccc1N"
  caspase-3 activation: "-5.62% (inactive)"
- Molecule: "Nc1ccc(Cl)c(Cl)c1"
  caspase-3 activation: "0.307% (inactive)"
- Molecule: "ClC=CCl"
  caspase-3 activation: "-1.83% (inactive)"
- Molecule: "Cc1cc(C)cc(OP(=O)(Oc2cc(C)cc(C)c2)Oc2cc(C)cc(C)c2)c1"
  caspase-3 activation: "1.43% (inactive)"
- Molecule: "Nc1cc(Cl)cc(C(=O)O)c1Cl"
  caspase-3 activation: "-1.19% (inactive)"
- Molecule: "CC(C#N)CCC#N (centres undefined)"
  caspase-3 activation: "0.584% (inactive)"
- Molecule: "N#CCc1ccccc1"
  caspase-3 activation: "-1.14% (inactive)"
- Molecule: "CC(C)(C)c1ccccc1O"
  caspase-3 activation: "-1.2% (inactive)"
- Molecule: "ClCCBr"
  caspase-3 activation: "-0.69% (inactive)"
- Molecule: "c1ccc(N=NNc2ccccc2)cc1"
  caspase-3 activation: "-0.924% (inactive)"
- Molecule: "S=c1[nH]c2ccccc2[nH]1"
  caspase-3 activation: "0.513% (inactive)"
- Molecule: "ClCC(Cl)Cl"
  caspase-3 activation: "-0.541% (inactive)"
- Molecule: "ClC(Cl)Br"
  caspase-3 activation: "-0.335% (inactive)"
- Molecule: "CC[N+](=O)[O-]"
  caspase-3 activation: "3.71% (inactive)"
- Molecule: "O=C(Cl)OCc1ccccc1"
  caspase-3 activation: "0.783% (inactive)"
- Molecule: "C=CC(=O)OCCO"
  caspase-3 activation: "2.01% (inactive)"
- Molecule: "N#CC(Br)Br"
  caspase-3 activation: "5.88% (inactive)"
- Molecule: "Cc1cccc(C)c1N"
  caspase-3 activation: "0.142% (inactive)"
- Molecule: "CC(C)[C@]12CC(=O)[C@H](C)[C@H]1C2"
  caspase-3 activation: "-0.456% (inactive)"
- Molecule: "Nc1ccc(Cc2ccc(N)c(Cl)c2)cc1Cl"
  caspase-3 activation: "1.19% (inactive)"
- Molecule: "CC(C)OC(=O)Cc1ccccc1"
  caspase-3 activation: "0.719% (inactive)"
- Molecule: "NC1CCC(CC2CCC(N)CC2)CC1 (centres undefined)"
  caspase-3 activation: "-0.935% (inactive)"
- Molecule: "[C-]1=CC=CC1.[C-]1=CC=CC1.[Cl-].[Cl-].[Ti+4]"
  caspase-3 activation: "3.8% (inactive)"
- Molecule: "CCCCCC[N+](=O)[O-]"
  caspase-3 activation: "-0.935% (inactive)"
- Molecule: "OC[P+](CO)(CO)CO"
  caspase-3 activation: "0.818% (inactive)"

Source of measurements: PubChem BioAssay (NCATS)
